Please go through the items and note down their normalized growth.
- Assay method text: chemical genetic growth profiling, strain panel (AID 1159580);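 also: tested at 20 µM; growth read once vehicle control cultures reached saturation at 30 °C; 1 = growth at the plate median or of vehicle wells; lower values mean less growth of the strain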
- Assay conditions: S. cerevisiae deletion strains, growth OD, locus YDR137W, strain rgp1, hits give low values
The whole screen tested about 5,500 compounds, of which about 2,000 (36%) were called active. Roughly 18% stayed inconclusive and do not appear here. The list shows a part of the results.
Note: the reply should be a number with no unit written.

Query :: // query normalized growth value for entry "CC(=O)NCc1c(I)c(NC(C)=O)c(I)c(C(=O)O)c1I"
Result :: 1.01

Query :: // query normalized growth value for entry "O=c1ccc2ccc(O)cc2o1"
Result :: 1.02

Query :: // query normalized growth value for entry Nc1c2c(nc3ccccc13)CCCC2O (stereo not given)
Result :: 1.01

Query :: // query normalized growth value for entry "COc1ccc2c3c([nH]c2c1)C(C)=NCC3"
Result :: 1.01

Query :: // query normalized growth value for entry CCN1C[C@]2(OC(=O)c3ccccc3NC(C)=O)CCC(OC)[C@]34C1[C@H](CC23)[C@@]1(O)CC(OC)[C@H]2CC4C1(O)[C@H]2OC (stereo not given in full)
Result :: 1.02

Query :: // query normalized growth value for entry COC(=O)Nc1nc2ccc(S(=O)c3ccccc3)cc2[nH]1 (stereo not given)
Result :: 0.996

Query :: // query normalized growth value for entry NC(Cc1c[nH]c2ccccc12)C(=O)O (stereo not given)
Result :: 1.03

Query :: // query normalized growth value for entry "NC(N)=N/N=C/c1c(Cl)cccc1Cl"
Result :: 0.922

Query :: // query normalized growth value for entry C[C@H]1[C@H](C)CC[C@]2(CO)CC[C@]3(C)C(=CCC4[C@@]5(C)CC[C@H](O)C(C)(C)C5CC[C@]43C)[C@H]12 (stereo not given in full)
Result :: 0.996

Query :: // query normalized growth value for entry "O=C1c2c(O)cccc2Cc2cccc(O)c21"
Result :: 0.848

Query :: // query normalized growth value for entry CC1(C)CC[C@@]2(C(=O)O)C(C1)C1=CCC3[C@@]4(C)CC[C@H](O)C(C)(C)C4CC[C@@]3(C)[C@]1(C)C[C@@H]2O (stereo not given in full)
Result :: 0.828

Query :: // query normalized growth value for entry "CCOc1ccc2nc3cc(N)ccc3c(N)c2c1"
Result :: 0.985

Query :: // query normalized growth value for entry CC1(C)CCC2(C(=O)O)CCC3(C)C(=CCC4C5(C)CCC(O)C(C)(C)C5C(O)CC43C)C2C1 (stereo not given)
Result :: 0.871

Query :: // query normalized growth value for entry "Nc1c2ccccc2nc2ccccc12"
Result :: 0.983

Query :: // query normalized growth value for entry "Nc1ccc(S(=O)(=O)c2ccc(N)cc2)cc1"
Result :: 1.01

Query :: // query normalized growth value for entry CC(C)CC(N(C)C)C1(c2ccc(Cl)cc2)CCC1 (stereo not given)
Result :: 1.12

Query :: // query normalized growth value for entry COc1c(-c2coc3cc4c(cc3c2=O)CC(OC(C)=O)C(C)(C)O4)ccc2c1C=CC(C)(C)O2 (stereo not given)
Result :: 1.08

Query :: // query normalized growth value for entry "CC(C)(C#N)O[C@@H]1O[C@H](CO)[C@@H](O)[C@H](O)[C@H]1O"
Result :: 1.02

Query :: // query normalized growth value for entry "NNc1nncc2ccccc12"
Result :: 1.02

Query :: // query normalized growth value for entry "COc1ccc2[nH]cc(CCN)c2c1"
Result :: 1.01

Query :: // query normalized growth value for entry CC(C)=CCCC1(C)C=Cc2c(O)c3c(c(CC=C(C)C)c2O1)OC12C(=CC4CC1C(C)(C)OC2(C/C=C(/C)C(=O)O)C4=O)C3=O (stereo not given)
Result :: 0.713

Query :: // query normalized growth value for entry "COc1cccc2c1C(=O)c1c(O)c3c(c(O)c1C2=O)C[C@@](O)(C(C)=O)C[C@@H]3O[C@H]1C[C@H](N)[C@H](O)[C@H](C)O1"
Result :: 0.956

Query :: // query normalized growth value for entry Nc1c2ccccc2nc2ccccc12 (tested in a mixture with another compound)
Result :: 0.572

Query :: // query normalized growth value for entry "Cc1ccc(-c2cc(C(F)(F)F)nn2-c2ccc(S(N)(=O)=O)cc2)cc1"
Result :: 1.02

Query :: // query normalized growth value for entry "Nc1c2c(nc3ccccc13)CCCC2"
Result :: 1.02

====

- Assay method text: chemical genetic growth profiling, strain panel (AID 1159580);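 also: tested at 20 µM; growth read once vehicle control cultures reached saturation at 30 °C; 1 = growth at the plate median or of vehicle wells; lower values mean less growth of the strain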
- Assay conditions: S. cerevisiae deletion strains, growth OD, locus YKL190W, strain CNB1, hits give low values
Out of some 5,500 compounds screened, about 2,000 (36%) were called active. Inconclusive results (about 18%) are left out. The list shows a part of the results.
Please go through the items and note down their normalized growth.
Note: the reply should be a number with no unit written.

Query :: // query normalized growth value for entry "Nc1ccc(S(=O)(=O)Nc2ccnn2-c2ccccc2)cc1"
Result :: 1.01

Query :: // query normalized growth value for entry "Cc1cc(O)cc(O)c1C(=O)O"
Result :: 0.978

Query :: // query normalized growth value for entry "Cc1cc(C(C)(C)C)c(O)c(C(C)(C)C)c1"
Result :: 0.96

Query :: // query normalized growth value for entry "Cc1cc(O)cc(C)c1Cl"
Result :: 1

Query :: // query normalized growth value for entry "CNCc1ccccc1"
Result :: 0.996

Query :: // query normalized growth value for entry OC(CCN1CCCC1)(c1ccccc1)C1CCCCC1 (configuration not stated)
Result :: 0.996

Query :: // query normalized growth value for entry CC1=CCC2C3(C)C1=CC(=O)OC3CC1C(C)(C)CC(O)C(O)C12C (configuration not stated)
Result :: 1.01

Query :: // query normalized growth value for entry "Nc1c2ccccc2nc2ccccc12"
Result :: 0.64

Query :: // query normalized growth value for entry "Cc1cn([C@H]2C[C@H](N=[N+]=[N-])[C@@H](CO)O2)c(=O)[nH]c1=O"
Result :: 1.01

Query :: // query normalized growth value for entry "Nc1ccc(S(=O)(=O)Nc2cnc3ccccc3n2)cc1"
Result :: 0.976

Query :: // query normalized growth value for entry "COc1cc(OC)nc(N)n1"
Result :: 0.992

Query :: // query normalized growth value for entry C#C[C@]1(O)CCC2C3CCC4=CC(=O)CC[C@@H]4C3CC[C@@]21CC (some centres not stated)
Result :: 1.01

====

Please go through the items and note down their normalized growth.
- Assay method text: chemical genetic growth profiling, strain panel (AID 1159580);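 also: tested at 20 µM; growth read once vehicle control cultures reached saturation at 30 °C; 1 = growth at the plate median or of vehicle wells; lower values mean less growth of the strain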
- Assay conditions: S. cerevisiae deletion strains, growth OD, locus YAL013W, strain DEP1, hits give low values
About 2,000 (36%) of roughly 5,500 compounds were called active. Not shown: some 18% with an inconclusive outcome. The list shows a part of the results.
Note: the reply should be a number with no unit written.

Query :: // query normalized growth value for entry "COc1cc(N)c(Cl)cc1C(=O)NC1CCN(Cc2ccccc2)CC1"
Result :: 0.997

Query :: // query normalized growth value for entry CC12CCC3C4CCC(=O)C=C4CCC3C1CCC2=O (stereo not given)
Result :: 1.01

Query :: // query normalized growth value for entry COC(=O)C[C@H]1C(C)(C)C(=O)[C@@H]2CC3C4=CC(=O)O[C@@H](c5ccoc5)[C@]4(C)CCC3[C@@]1(C)C2=O (stereo not given in full)
Result :: 0.98

Query :: // query normalized growth value for entry "O=C(NC1CCN(Cc2ccc(Cl)c(Cl)c2)CC1)c1ccccc1"
Result :: 1.01

Query :: // query normalized growth value for entry CCC(C)C(NC)C(=O)O (stereo not given)
Result :: 1.02

Query :: // query normalized growth value for entry "Cn1cnc2c(NCc3ccccc3)nc(NCCO)nc21"
Result :: 0.989

Query :: // query normalized growth value for entry "Cc1nc(-c2nnc(Sc3ccc(C(F)(F)F)cc3[N+](=O)[O-])n2C)cs1"
Result :: 1.01

Query :: // query normalized growth value for entry C[C@]12CCC(=O)C=C1CCC1C2[C@@H](O)C[C@@]2(C)C1CC[C@]2(O)C(=O)CO (stereo not given in full)
Result :: 1.02

Query :: // query normalized growth value for entry COc1cccc(OC)c1OCCNCC1COc2ccccc2O1 (stereo not given)
Result :: 1.02

Query :: // query normalized growth value for entry NC(Cc1c[nH]c2ccccc12)C(=O)O (stereo not given)
Result :: 1

====

Please go through the items and note down their normalized growth.
- Assay method text: chemical genetic growth profiling, strain panel (AID 1159580);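 also: tested at 20 µM; growth read once vehicle control cultures reached saturation at 30 °C; 1 = growth at the plate median or of vehicle wells; lower values mean less growth of the strain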
- Assay conditions: S. cerevisiae deletion strains, growth OD, locus YNL222W, strain SSU72, hits give low values
About 2,000 (36%) of roughly 5,500 compounds were called active. Another 18% or so got no clear call; they are omitted. The list shows a part of the results.
Note: the reply should be a number with no unit written.

Query :: // query normalized growth value for entry "Cc1csc(NC(=O)Nc2ccc(C(F)(F)F)cc2)c1Cl"
Result :: 0.95

Query :: // query normalized growth value for entry O=C(NCC(c1ccccc1)c1c[nH]c2ccccc12)c1ccc(C(F)(F)F)cc1 (centres undefined)
Result :: 0.986

Query :: // query normalized growth value for entry "O=C(CSCc1csc2ccccc12)Nc1ccc(F)c(Cl)c1"
Result :: 0.966

Query :: // query normalized growth value for entry "Cc1ccc(S(=O)(=O)n2c(Sc3ccc([N+](=O)[O-])cc3[N+](=O)[O-])nc3cc(C)ccc32)cc1"
Result :: 0.975
